System: OVCAR-5 ovarian
Protocol summary: NCI tumour cell line growth inhibition, 48 h; in the data active = GI50 below about 0.43 µM; inactive = the rest
Can you answer with just one of these options? True (active), False (inactive)

Worked examples, 2 compounds total:
>  <Compound>
CN(C)[C@@H]1C(=O)C(C(=O)NCc2nc3[nH]cnc(=S)c3[nH]2)=C(O)[C@@]2(O)C(=O)C3=C(O)c4c(O)cccc4[C@@](C)(O)[C@H]3C[C@@H]12

>  <Label class>
False

$$$$
>  <Compound>
OC[C@H]1C[C@](O)(c2ccc(F)cc2)[C@@H](c2ccc(F)cc2)O1

>  <Label class>
False

$$$$

INPUT: State the result this test recorded for C/C(=C\c1csc(C)n1)[C@@H]1C[C@@H]2O[C@]2(C)CCC[C@H](C)[C@H](O)[C@@H](C)C(=O)C(C)(C)[C@@H](O)CC(=O)N1 .
OUTPUT: True

INPUT: State the result this test recorded for CC(C)c1ccc2c(c1)CCC1C2CCCC1(C)NCc1ccccc1 (centres undefined) .
OUTPUT: False

INPUT: State the result this test recorded for C#CCCCCCC(=O)N[C@H]1C=C[C@@H]2/C=C(C)/C=C/[C@@H](C)[C@H]([C@H](C)[C@H](O)[C@@H](C)NC(C)=O)OC(=O)/C=C/C=C(C)\C=C\[C@]2(C)C1 .
OUTPUT: False

INPUT: State the result this test recorded for COc1ccc(Cn2c(Br)c3c(c2-c2cc(OC)c(OC)c(OC)c2)CCc2sc(N)nc2-3)cc1 .
OUTPUT: False

INPUT: State the result this test recorded for CN(C)CCCC1(c2ccc(F)cc2)OCc2cc(-c3csc4ccccc34)ccc21 (centres undefined) .
OUTPUT: False

INPUT: State the result this test recorded for O=C1NC(=NCc2cccs2)O/C1=C\c1ccc2ncccc2c1 .
OUTPUT: False

INPUT: State the result this test recorded for COc1cc(NC(=O)COc2ccccc2)c(C(N)=O)cc1OC .
OUTPUT: False

INPUT: State the result this test recorded for O=C1Nc2ccc(Cl)cc2/C1=N/c1nc(-c2ccc(Cl)cc2)cs1 .
OUTPUT: False

INPUT: State the result this test recorded for O=C1[C@H](Cc2ccc(O)cc2)N2C(=O)CCN(C(=O)NCc3ccccc3)[C@H]2CN1Cc1cccc2ccccc12 .
OUTPUT: False

* * *

Property: TGI; scope: individual compounds
System: LOX IMVI melanoma
Protocol summary: NCI tumour cell line growth inhibition, 48 h

Some entries whose results are on file:
>  <Compound>
O=C1NC(c2ccccc2Cl)Nc2ccccc21 (stereo not drawn)

>  <TGI>
> 100 µM

$$$$
>  <Compound>
CN(C)[C@@H]1C(=O)C(C(=O)NCc2nc3[nH]cnc(=S)c3[nH]2)=C(O)[C@@]2(O)C(=O)C3=C(O)c4c(O)cccc4[C@@](C)(O)[C@H]3C[C@@H]12

>  <TGI>
> 100 µM

$$$$
>  <Compound>
CCN(C(=O)N[C@@H](CC(C)C)C(=O)NCC(=O)OC)c1ccccc1

>  <TGI>
> 100 µM

$$$$
>  <Compound>
O[C@@H]1[C@H](OC2c3ccccc3-c3ccccc32)[C@H](OCc2ccccc2)[C@@H]2OC[C@H]1O2

>  <TGI>
> 100 µM

$$$$

Shifting focus to the compound that follows.
INPUT: Please list TGI recorded for the compound COc1cc(/C=C/c2cc(/C=C/c3ccc(O)c(OC)c3)n(C(=O)Nc3ccc(C)cc3)n2)ccc1O
OUTPUT: 2.62 µM
